assayTarget: MMP-2/MMP-9 (Homo sapiens) (UniProt P08253+P14780)
assayMethodText: Selectivity ratio of Ki for human recombinant MMP-9 catalytic domain to Ki for human recombinant MMP-2

[
  {
    "compound": "COC(=O)Oc1ccc(Oc2ccc(S(=O)(=O)CC3CS3)cc2)cc1 (stereo not given)",
    "Ratio Ki": 2
  },
  {
    "compound": "CC(C)NC(=O)Nc1ccc(Oc2ccc(S(=O)(=O)CC3CS3)cc2)cc1 (stereo not given)",
    "Ratio Ki": 20
  },
  {
    "compound": "CCOC(=O)Oc1ccc(Oc2ccc(S(=O)(=O)CC3CS3)cc2)cc1 (stereo not given)",
    "Ratio Ki": 2
  },
  {
    "compound": "CNC(=O)Nc1ccc(Oc2ccc(S(=O)(=O)CC3CS3)cc2)cc1 (stereo not given)",
    "Ratio Ki": 20
  },
  {
    "compound": "CC(C)OC(=O)Nc1ccc(Oc2ccc(S(=O)(=O)CC3CS3)cc2)cc1 (stereo not given)",
    "Ratio Ki": 2
  }
]
